The measured values listed here are drawn from paper PMC8468767.

# experimentDescription: Plasma pharmacokinetics after a single IV dose in mice
# Assay type: in vivo
# settings: mouse; male C57BL/6J mice, single IV 1 mg/kg peptide equivalent, plasma, LC-MS/MS, two-compartmental model, n = 4; read-out: mean residence time (MRT)
Bridge positions count the residues as written; N and C are the ends. Square brackets hold non-standard residues; d marks the D form. Peptide text beside a SMILES is read from it. * marks the point of attachment. Hydrocinnamoyl = O=C(CCc1ccccc1)*; dCha = N[C@H](CC1CCCCC1)C(=O)O; Orn = NCCC[C@H](N)C(=O)O
assayEndpoint: MRT (min)

compound: N=C(N)NCCC[C@@H]1NC(=O)[C@H](Cc2c[nH]c3ccccc23)NC(=O)[C@@H](CC2CCCCC2)NC(=O)[C@@H]2CCCN2C(=O)[C@@H](NC(=O)CCc2ccccc2)CCCNC1=O [HC-[OPdChaWR]] (Hydrocinnamoyl-[Orn]P[dCha]WR; lactam 1-C)
assayEndpoint: MRT
units: min
number: 45.6

###

# experimentDescription: Plasma pharmacokinetics after a single IV dose in mice
# Format: in vivo
# settings: mouse; male C57BL/6J mice, single IV 1 mg/kg, plasma, LC-MS/MS, linear trapezoidal rule, n = 4; read-out: systemic exposure (AUC0-t)
Bridge positions count the residues as written; N and C are the ends. Square brackets hold non-standard residues; d marks the D form. Peptide text beside a SMILES is read from it. * marks the point of attachment. Hydrocinnamoyl = O=C(CCc1ccccc1)*; dCha = N[C@H](CC1CCCCC1)C(=O)O; Orn = NCCC[C@H](N)C(=O)O
assayEndpoint: AUC(0-t) (ng·h/mL)

compound: N=C(N)NCCC[C@@H]1NC(=O)[C@H](Cc2c[nH]c3ccccc23)NC(=O)[C@@H](CC2CCCCC2)NC(=O)[C@@H]2CCCN2C(=O)[C@@H](NC(=O)CCc2ccccc2)CCCNC1=O [HC-[OPdChaWR]] (Hydrocinnamoyl-[Orn]P[dCha]WR; lactam 1-C)
assayEndpoint: AUC(0-t)
number: 3830

###

# experimentDescription: Plasma pharmacokinetics after a single IV dose in mice
# Assay type: in vivo
# settings: mouse; male C57BL/6J mice, single IV (tail vein) 1 mg/kg peptide equivalent, plasma filtered (Microcon-10) so released peptide is measured, LC-MS/MS, two-compartmental model, n = 4; read-out: terminal elimination half-life (t1/2) (converted)
Bridge positions count the residues as written; N and C are the ends. Square brackets hold non-standard residues; d marks the D form. Peptide text beside a SMILES is read from it. * marks the point of attachment. Hydrocinnamoyl = O=C(CCc1ccccc1)*; dCha = N[C@H](CC1CCCCC1)C(=O)O; Orn = NCCC[C@H](N)C(=O)O
assayEndpoint: half-life (min)

molecule: N=C(N)NCCC[C@@H]1NC(=O)[C@H](Cc2c[nH]c3ccccc23)NC(=O)[C@@H](CC2CCCCC2)NC(=O)[C@@H]2CCCN2C(=O)[C@@H](NC(=O)CCc2ccccc2)CCCNC1=O [HC-[OPdChaWR]] (Hydrocinnamoyl-[Orn]P[dCha]WR; lactam 1-C)
units: min
number: 50.4
